B1: Osa-1-4 twister ribozyme (parent)
chain: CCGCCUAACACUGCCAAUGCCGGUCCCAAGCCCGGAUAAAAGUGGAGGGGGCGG

Variants of: B1
PROTOCOL DESCRIPTION: self-cleavage, relative activity (ratio to wild type); higher = more cleavage; co-transcriptional
MEASURED ATTRIBUTE: self-cleavage
Respond with the number and no other words.

In the examples that follow, each entry is paired with its recorded self-cleavage.
[
  {
    "VARIANT SPEC": "A8U C31G",
    "self-cleavage": 0.05
  },
  {
    "VARIANT SPEC": "A40U G45U",
    "self-cleavage": 0.07
  },
  {
    "VARIANT SPEC": "A36G C33A",
    "self-cleavage": 0.14
  },
  {
    "VARIANT SPEC": "G13C G30U",
    "self-cleavage": 0.01
  },
  {
    "VARIANT SPEC": "A40C G34A",
    "self-cleavage": 0.06
  }
]

Using the record for C11A G23U , report its self-cleavage.
0.03

Give the measured self-cleavage of A8C C26U .
0.06

Return reported self-cleavage; argument: G51A U37C
0.82

For the variant shown here, A8U G23C , give the reported self-cleavage.
0.04

Record request: self-cleavage value, item G44A U37G
1

Give the measured self-cleavage of A16U C14G .
0.11
